These measurements were taken from PubChem BioAssay (NCI).

Test system: HOP-92 NSCLC
METHOD_SUMMARY: NCI tumour cell line growth inhibition, 48 h; in the data active = GI50 below about 0.43 µM; inactive = the rest
Output constraint: value belongs to active, inactive

INSERT INTO results (compound, test_target, category_label) VALUES
  ('CC(=O)c1cc(C(=O)c2ccc3c(c2)Sc2ccccc2N3)c2c(C)cc(C)cn12', 'HOP-92 NSCLC', 'inactive'),
  ('COc1ccc2cc(-c3cc4c(oc3=O)-c3ccccc3OC4O)c(=O)oc2c1 (stereo not given)', 'HOP-92 NSCLC', 'inactive'),
  ('O=C1c2ccccc2S(=O)(=O)N1CSC(=S)N1CCCCC1', 'HOP-92 NSCLC', 'inactive');

## Input I'd appreciate the recorded outcome for Nc1nc(OCc2cc(Br)cs2)c2[nH]cnc2n1 from this test.
## Output inactive

## Input I'd appreciate the recorded outcome for NC1CCC(Nc2nc(NCc3ccc(-c4cccs4)nc3)c3ncn(C4CCCC4)c3n2)CC1 (stereo not given) from this test.
## Output active

====

Tested on: A549 NSCLC
METHOD_SUMMARY: NCI tumour cell line growth inhibition, 48 h
ENDPOINT_NAME: TGI

Worked cases, answers included:
INSERT INTO assay_data (molecule, test_target, observed) VALUES
  ('NCCN1C(=O)CN=C(c2ccc(Cl)cc2)c2cc(Cl)ccc21', 'A549 NSCLC', '32.2 µM'),
  ('CC1(C)C(O)C[C@@H](O)[C@@]2(C)C1CC[C@]1(C)C2C[C@@H](O)[C@@H]2C([C@@]3(C)CC[C@@H](C(C)(C)O)O3)CCC21C (stereo partly specified)', 'A549 NSCLC', '37 µM'),
  ('Cc1[nH]nc(N)c1C(N)=O', 'A549 NSCLC', '> 100 µM'),
  ('CCOC(=O)c1cnc2n(c1=N)[C@H]1CCCC[C@@H]1N2', 'A549 NSCLC', '> 100 µM'),
  ('N#C/C(C(=O)Nc1ccc(Cl)cc1)=C(/N)N1CCCCC1', 'A549 NSCLC', '> 100 µM');

## Input Let me know recorded TGI for Clc1cccc(Cl)c1C1CSc2ccccc2N=C1c1ccccc1 (stereo unspecified) , thanks.
## Output 28.1 µM

## Input Let me know recorded TGI for COC1CCN(C(=O)c2cc(Cc3n[nH]c(=O)c4ccccc34)ccc2F)CC1 , thanks.
## Output > 100 µM

## Input Let me know recorded TGI for Cn1cc(C2=C(c3cn(C)c4c([N+](=O)[O-])cccc34)C(=O)NC2=O)c2ccccc21 , thanks.
## Output > 25 µM

## Input Let me know recorded TGI for O=C(/C(=C\c1ccc([N+](=O)[O-])cc1)S(=O)Cc1ccc(F)cc1)c1ccc(F)cc1 (stereo unspecified) , thanks.
## Output 10.2 µM

## Input Let me know recorded TGI for Cc1nc(N/N=C/c2ccccc2Cl)[nH]c(=O)c1CCO , thanks.
## Output > 100 µM

## Input Let me know recorded TGI for Cc1cccc2c1N(C(=O)/C=C\C(=O)O)C(c1c(C)[nH]c3ccccc13)C2 (stereo unspecified) , thanks.
## Output > 100 µM

====

Tested on: TK-10 renal
METHOD_SUMMARY: NCI tumour cell line growth inhibition, 48 h
ENDPOINT_NAME: TGI

Worked cases, answers included:
INSERT INTO assay_data (molecule, endpoint_name, observed) VALUES
  ('Clc1ccc2c(c1)N(CCCN1CCCC1)c1ccccc1S2', 'TGI', '26 µM'),
  ('COc1ccc(C(CC(=O)C(C)(C)CN2CCCCC2)SCCS(=O)(=O)O)cc1 (stereo unspecified)', 'TGI', '> 100 µM'),
  ('CC[P+](C)(C)c1ccccc1', 'TGI', '> 100 µM');

## Input For TK-10 renal, give the measured TGI of the entry Cc1ncc2c(=O)c3c(oc2n1)c1ccccc1n3Cc1ccccc1
## Output > 100 µM
